These data points were gathered from patent US8772495B2.

procedureText: Phase I study: pharmacokinetics after single and multiple oral doses
Type: in vivo
recordedConditions: human, plasma, po, 600 mg, single dose 600 mg, oral solution; read-out: AUC0-24
quantity: AUC(0-t) (µM·h)
Reply with just the number (in µM·h).

Short answer for CCOc1ccc(-c2ccc(Cn3c(CC(C)(C)C(=O)[O-])c(SC(C)(C)C)c4cc(OCc5ccc(C)cn5)ccc43)cc2)cn1.[Na+] : AUC(0-t) was 90

* * *

procedureText: Phase I study: pharmacokinetics after single and multiple oral doses
Assay type: in vivo
recordedConditions: human, plasma, po, 150 mg, single dose 150 mg, oral solution
quantity: Tmax (h)
Reply with just the number (in h).

Short answer for CCOc1ccc(-c2ccc(Cn3c(CC(C)(C)C(=O)[O-])c(SC(C)(C)C)c4cc(OCc5ccc(C)cn5)ccc43)cc2)cn1.[Na+] : Tmax was 2.3

* * *

procedureText: Oral administration of liquid formulations to rats
Design: species or system male Spargue-Dawley rats
recordedConditions: Sprague-Dawley, rat, in vivo, solutions of Table 19, male rats
quantity: Tmax

Short answer for CCOc1ccc(-c2ccc(Cn3c(CC(C)(C)C(=O)[O-])c(SC(C)(C)C)c4cc(OCc5ccc(C)cn5)ccc43)cc2)cn1.[Na+] [Compound 2] : Tmax was ≤ 2 h

* * *

procedureText: Phase I study: pharmacokinetics after single and multiple oral doses
Assay type: in vivo
recordedConditions: human, plasma, oral, 10 mg, multiple dose 10 mg, Day 1; read-out: AUClast
quantity: AUC(0-t)

Short answer for CCOc1ccc(-c2ccc(Cn3c(CC(C)(C)C(=O)[O-])c(SC(C)(C)C)c4cc(OCc5ccc(C)cn5)ccc43)cc2)cn1.[Na+] : AUC(0-t) was 1.1 µM·h

* * *

procedureText: Single-dose pharmacokinetics in beagle dogs
Format: in vivo, female beagle dogs
recordedConditions: female, beagle, dog, plasma, po, 5 mg/kg, Oral, 0.5% Methylcellulose, 5 mg/kg, Fed; read-out: Cmax
quantity: Cmax (ng/mL)
Reply with just the number (in ng/mL).

Short answer for CCOc1ccc(-c2ccc(Cn3c(CC(C)(C)C(=O)[O-])c(SC(C)(C)C)c4cc(OCc5ccc(C)cn5)ccc43)cc2)cn1.[Na+] : Cmax was 3700
